Quick note: these are IC50 numbers for system: His tagged PTPN2 (TC45) protein (Homo sapiens)
Sequence (P17706 with tags, fused parts or gaps isoform P17706-2): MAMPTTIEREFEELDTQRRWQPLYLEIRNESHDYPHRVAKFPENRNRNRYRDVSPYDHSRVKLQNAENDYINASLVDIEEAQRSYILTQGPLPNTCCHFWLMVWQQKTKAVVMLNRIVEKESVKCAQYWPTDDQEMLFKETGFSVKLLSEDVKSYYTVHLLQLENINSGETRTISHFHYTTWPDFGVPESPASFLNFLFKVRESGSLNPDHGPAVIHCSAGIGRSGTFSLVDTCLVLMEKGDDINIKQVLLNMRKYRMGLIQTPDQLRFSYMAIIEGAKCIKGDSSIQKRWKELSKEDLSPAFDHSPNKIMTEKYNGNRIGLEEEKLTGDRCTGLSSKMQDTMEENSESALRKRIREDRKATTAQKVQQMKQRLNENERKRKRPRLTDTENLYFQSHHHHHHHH
Value kind: IC50

>  <Molecule>
CC(C)OCCN1CCc2cc(O)c(N3CC(=O)NS3(=O)=O)c(F)c2C1

>  <Result>
> 100 nM

$$$$
>  <Molecule>
CC(=O)N[C@@H]1CCc2cc(O)c(N3CC(=O)NS3(=O)=O)c(F)c2C1

>  <Result>
> 100 nM

$$$$
>  <Molecule>
CC(C)CNCC1(O)CCc2cc(O)c(N3CC(=O)NS3(=O)=O)c(F)c2C1 (centres unmarked)

>  <Result>
10 to 100 nM

$$$$
>  <Molecule>
O=C1CN(c2c(O)cc3c(c2F)C[C@H](NCc2nccs2)CC3)S(=O)(=O)N1

>  <Result>
10 to 100 nM

$$$$
>  <Molecule>
Cc1n[nH]c(C)c1CCN1Cc2c(cc(O)c(N3CC(=O)NS3(=O)=O)c2F)C(F)(F)C1

>  <Result>
> 100 nM

$$$$
>  <Molecule>
CCOCCCN[C@@H]1CCc2cc(O)c(N3CC(=O)NS3(=O)=O)c(F)c2C1

>  <Result>
1 to 10 nM

$$$$
>  <Molecule>
O=C1CN(c2c(O)cc3c(c2F)CN(CC2CCNCC2)CC3)S(=O)(=O)N1

>  <Result>
> 100 nM

$$$$
>  <Molecule>
NCC(F)(F)CCCN[C@@H]1CCc2cc(O)c(N3CC(=O)NS3(=O)=O)c(F)c2C1

>  <Result>
1 to 10 nM

$$$$
>  <Molecule>
Cn1cccc1CN[C@@H]1CCc2cc(O)c(N3CC(=O)NS3(=O)=O)c(F)c2C1

>  <Result>
10 to 100 nM

$$$$
>  <Molecule>
CCC(CC)CCN[C@@H]1CCc2cc(O)c(N3CC(=O)NS3(=O)=O)c(F)c2C1

>  <Result>
< 1 nM

$$$$
>  <Molecule>
O=C1CN(c2c(O)cc3c(c2F)C[C@H](NCC2(C(F)F)CC2)CC3)S(=O)(=O)N1

>  <Result>
1 to 10 nM

$$$$
>  <Molecule>
O=C1CN(c2c(O)cc3c(c2F)C[C@H](NCC2CCOC2)CC3)S(=O)(=O)N1 (some centres unmarked)

>  <Result>
1 to 10 nM

$$$$
>  <Molecule>
Cc1cc(CNC(=O)N2CCc3cc(O)c(N4CC(=O)NS4(=O)=O)c(F)c3C2)n(C)n1

>  <Result>
10 to 100 nM

$$$$
>  <Molecule>
CC(C)CCN[C@@H]1COc2cc(O)c(N3CC(=O)NS3(=O)=O)c(F)c2C1

>  <Result>
10 to 100 nM

$$$$
>  <Molecule>
NC[C@@H]1CCc2cc(O)c(N3CC(=O)NS3(=O)=O)c(F)c2C1

>  <Result>
10 to 100 nM

$$$$
>  <Molecule>
O=C1CN(c2c(O)cc3c(c2F)CN(CCCC2CCNCC2)CC3)S(=O)(=O)N1

>  <Result>
10 to 100 nM

$$$$
>  <Molecule>
C[C@H](N)CN1CCc2cc(O)c(N3CC(=O)NS3(=O)=O)c(F)c2C1

>  <Result>
10 to 100 nM

$$$$

Origin of the recorded values: patent US20250122160A1
